The values you see were collected from patent US20150140169.

- study-target: T1, alpha-s1 casein from Bos taurus
- T1 chain: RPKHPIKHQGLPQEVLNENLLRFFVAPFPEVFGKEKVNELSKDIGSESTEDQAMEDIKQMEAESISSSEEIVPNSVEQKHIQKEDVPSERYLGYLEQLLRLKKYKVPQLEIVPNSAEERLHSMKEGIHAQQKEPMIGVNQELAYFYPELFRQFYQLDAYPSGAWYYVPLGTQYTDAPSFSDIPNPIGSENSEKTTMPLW
Listed next: entries and their corresponding (αSN1-1)/(αSN1), 6 hours, 11° C..
Keep the answer to the number alone.

Consider the worked cases shown below.
camel chymosin variant #161 (L295M) (protein) GKVAREPLTSYLDSQYFGKIYIGTPPQEFTVVFDTGSSDLWVPSIYCKSNVCKNHHRFDPRKSSTFRNLGKPLSIHYGTGSMEGFLGYDTVTVSNIVDPNQTVGLSTEQPGEVFTYSEFDGILGLAYPSLASEYSVPVFDNMMDRHLVARDLFSVYMDRNGQGSMLTLGAIDPSYYTGSLHWVPVTLQQYWQFTVDSVTINGVAVACVGGCQAILDTGTSVLFGPSSDILKIQMAIGATENRYGEFDVNCGNLRSMPTVVFEINGRDYPLSPSAYTSKDQGFCTSGFQGDNNSEMWILGDVFIREYYSVFDRANNRVGLAKAI : 0.6
camel chymosin variant #138 (F223E) (protein) GKVAREPLTSYLDSQYFGKIYIGTPPQEFTVVFDTGSSDLWVPSIYCKSNVCKNHHRFDPRKSSTFRNLGKPLSIHYGTGSMEGFLGYDTVTVSNIVDPNQTVGLSTEQPGEVFTYSEFDGILGLAYPSLASEYSVPVFDNMMDRHLVARDLFSVYMDRNGQGSMLTLGAIDPSYYTGSLHWVPVTLQQYWQFTVDSVTINGVAVACVGGCQAILDTGTSVLEGPSSDILKIQMAIGATENRYGEFDVNCGNLRSMPTVVFEINGRDYPLSPSAYTSKDQGFCTSGFQGDNNSELWILGDVFIREYYSVFDRANNRVGLAKAI : 0.6
camel chymosin variant #137 (F223D) (protein) GKVAREPLTSYLDSQYFGKIYIGTPPQEFTVVFDTGSSDLWVPSIYCKSNVCKNHHRFDPRKSSTFRNLGKPLSIHYGTGSMEGFLGYDTVTVSNIVDPNQTVGLSTEQPGEVFTYSEFDGILGLAYPSLASEYSVPVFDNMMDRHLVARDLFSVYMDRNGQGSMLTLGAIDPSYYTGSLHWVPVTLQQYWQFTVDSVTINGVAVACVGGCQAILDTGTSVLDGPSSDILKIQMAIGATENRYGEFDVNCGNLRSMPTVVFEINGRDYPLSPSAYTSKDQGFCTSGFQGDNNSELWILGDVFIREYYSVFDRANNRVGLAKAI : 0.7

Read off the recorded (αSN1-1)/(αSN1), 6 hours, 11° C. for camel chymosin variant #141 (F223N) (protein) GKVAREPLTSYLDSQYFGKIYIGTPPQEFTVVFDTGSSDLWVPSIYCKSNVCKNHHRFDPRKSSTFRNLGKPLSIHYGTGSMEGFLGYDTVTVSNIVDPNQTVGLSTEQPGEVFTYSEFDGILGLAYPSLASEYSVPVFDNMMDRHLVARDLFSVYMDRNGQGSMLTLGAIDPSYYTGSLHWVPVTLQQYWQFTVDSVTINGVAVACVGGCQAILDTGTSVLNGPSSDILKIQMAIGATENRYGEFDVNCGNLRSMPTVVFEINGRDYPLSPSAYTSKDQGFCTSGFQGDNNSELWILGDVFIREYYSVFDRANNRVGLAKAI
0.7

Read off the recorded (αSN1-1)/(αSN1), 6 hours, 11° C. for camel chymosin variant #142 (F223Q) (protein) GKVAREPLTSYLDSQYFGKIYIGTPPQEFTVVFDTGSSDLWVPSIYCKSNVCKNHHRFDPRKSSTFRNLGKPLSIHYGTGSMEGFLGYDTVTVSNIVDPNQTVGLSTEQPGEVFTYSEFDGILGLAYPSLASEYSVPVFDNMMDRHLVARDLFSVYMDRNGQGSMLTLGAIDPSYYTGSLHWVPVTLQQYWQFTVDSVTINGVAVACVGGCQAILDTGTSVLQGPSSDILKIQMAIGATENRYGEFDVNCGNLRSMPTVVFEINGRDYPLSPSAYTSKDQGFCTSGFQGDNNSELWILGDVFIREYYSVFDRANNRVGLAKAI
0.7

Read off the recorded (αSN1-1)/(αSN1), 6 hours, 11° C. for camel chymosin variant #146 (Q288G) (protein) GKVAREPLTSYLDSQYFGKIYIGTPPQEFTVVFDTGSSDLWVPSIYCKSNVCKNHHRFDPRKSSTFRNLGKPLSIHYGTGSMEGFLGYDTVTVSNIVDPNQTVGLSTEQPGEVFTYSEFDGILGLAYPSLASEYSVPVFDNMMDRHLVARDLFSVYMDRNGQGSMLTLGAIDPSYYTGSLHWVPVTLQQYWQFTVDSVTINGVAVACVGGCQAILDTGTSVLFGPSSDILKIQMAIGATENRYGEFDVNCGNLRSMPTVVFEINGRDYPLSPSAYTSKDQGFCTSGFGGDNNSELWILGDVFIREYYSVFDRANNRVGLAKAI
0.9

Read off the recorded (αSN1-1)/(αSN1), 6 hours, 11° C. for camel chymosin variant #160 (L295K) (protein) GKVAREPLTSYLDSQYFGKIYIGTPPQEFTVVFDTGSSDLWVPSIYCKSNVCKNHHRFDPRKSSTFRNLGKPLSIHYGTGSMEGFLGYDTVTVSNIVDPNQTVGLSTEQPGEVFTYSEFDGILGLAYPSLASEYSVPVFDNMMDRHLVARDLFSVYMDRNGQGSMLTLGAIDPSYYTGSLHWVPVTLQQYWQFTVDSVTINGVAVACVGGCQAILDTGTSVLFGPSSDILKIQMAIGATENRYGEFDVNCGNLRSMPTVVFEINGRDYPLSPSAYTSKDQGFCTSGFQGDNNSEKWILGDVFIREYYSVFDRANNRVGLAKAI
0.6

Read off the recorded (αSN1-1)/(αSN1), 6 hours, 11° C. for camel chymosin variant #153 (D290L) (protein) GKVAREPLTSYLDSQYFGKIYIGTPPQEFTVVFDTGSSDLWVPSIYCKSNVCKNHHRFDPRKSSTFRNLGKPLSIHYGTGSMEGFLGYDTVTVSNIVDPNQTVGLSTEQPGEVFTYSEFDGILGLAYPSLASEYSVPVFDNMMDRHLVARDLFSVYMDRNGQGSMLTLGAIDPSYYTGSLHWVPVTLQQYWQFTVDSVTINGVAVACVGGCQAILDTGTSVLFGPSSDILKIQMAIGATENRYGEFDVNCGNLRSMPTVVFEINGRDYPLSPSAYTSKDQGFCTSGFQGLNNSELWILGDVFIREYYSVFDRANNRVGLAKAI
1
